Data provenance is patent US12215106B2.

- protocol-text: Plasma pharmacokinetics and brain distribution after single IV, IP and oral administration
- Type: in vivo
- condition-info: male, C57BL/6, mouse, in vivo, iv, 10 mg/kg, Mean brain conc.
Counter-ions that a name gives are not always drawn.
test-readout: concentration at 24 hr (ng/g)
# number only, unit ng/g dropped from output

Field request: concentration at 24 hr | item: Cc1nc2ccccn2c1-c1csc(Nc2ccc3c(c2)OC(F)(F)O3)n1 [Compound 16, hydrochloride]
0

---

- protocol-text: Plasma pharmacokinetics and brain distribution after single IV, IP and oral administration
- Type: in vivo
- condition-info: male, C57BL/6, mouse, in vivo, po, 10 mg/kg, Mean plasma conc.
Where a name gives a salt, the structure may show the parent alone.
test-readout: concentration at 24 h (ng/mL)
# number only, unit ng/mL dropped from output

Some compounds with known concentration at 24 h results, for comparison:
1) Cc1nc2ccccn2c1-c1csc(Nc2ccc3c(c2)OC(F)(F)O3)n1 [Compound 16, hydrochloride] | 0
2) [2H]C([2H])([2H])Oc1ccc(Nc2nc(-c3c(C)nc4ccccn34)cs2)cc1 [Compound 15, hydrochloride] | 0

Next, consider the following compound.
Field request: concentration at 24 h | item: [2H]C1([2H])Oc2ccc(Nc3nc(-c4c(C)nc5ccccn45)cs3)cc2O1 [Compound 17, hydrochloride]
0

---

- protocol-text: Plasma pharmacokinetics and brain distribution after single IV, IP and oral administration
- Assay type: in vivo
- condition-info: male, C57BL/6, mouse, brain, po, 10 mg/kg, PO 10 mg/kg; read-out: brain-to-plasma ratio, range over time
Counter-ions that a name gives are not always drawn.
test-readout: Kp

Some molecules with known Kp results, for comparison:
1. [2H]C([2H])([2H])Oc1ccc(Nc2nc(-c3c(C)nc4ccccn34)cs2)cc1 [Compound 15, hydrochloride] | 0.1 to 1.03
2. Cc1nc2ccccn2c1-c1csc(Nc2ccc3c(c2)OC(F)(F)O3)n1 [Compound 16, hydrochloride] | 1.07 to 1.81

Field request: Kp | item: [2H]C1([2H])Oc2ccc(Nc3nc(-c4c(C)nc5ccccn45)cs3)cc2O1 [Compound 17, hydrochloride]
0.23 to 0.48

---

- protocol-text: Plasma pharmacokinetics and brain distribution after single IV, IP and oral administration
- Type: in vivo
- condition-info: male, C57BL/6, mouse, plasma, po, 10 mg/kg, PO 10 mg/kg, AUClast considered; read-out: Oral bioavailability, % F
Structures can show the parent of a compound that is named as a salt.
test-readout: bioavailability (%)
# number only, unit % dropped from output

1) Cc1nc2ccccn2c1-c1csc(Nc2ccc3c(c2)OC(F)(F)O3)n1 [Compound 16, hydrochloride] | 20

Next, consider the following molecule.
Field request: bioavailability | item: [2H]C([2H])([2H])Oc1ccc(Nc2nc(-c3c(C)nc4ccccn34)cs2)cc1 [Compound 15, hydrochloride]
64

---

- protocol-text: in vitro
- Type: in vitro ADME, mice
- condition-info: mouse, plasma, pH 7.4, % Bound R2
Structures can show the parent of a compound that is named as a salt.
test-readout: fraction unbound at 4 h, 5 μM
Reply with the value as a number alone.

Some compounds with known fraction unbound at 4 h, 5 μM results, for comparison:
1) COc1c(F)cc(Nc2nc(-c3c(C)nc4ccccn34)cs2)cc1F [Compound 14, hydrochloride] | 0.003
2) [2H]C1([2H])Oc2ccc(Nc3nc(-c4c(C)nc5ccccn45)cs3)cc2O1 [Compound 17, hydrochloride] | 0.004
3) CC(=O)CC(c1ccccc1)c1c(O)c2ccccc2oc1=O (centres unmarked) [Warfarin, reference compound] | 0.075
4) Cc1nc2ccccn2c1-c1csc(Nc2ccc3c(c2)OC(F)(F)O3)n1 [Compound 16, hydrochloride] | 0.01

Next, consider the following compound.
Field request: fraction unbound at 4 h, 5 μM | item: [2H]C([2H])([2H])Oc1ccc(Nc2nc(-c3c(C)nc4ccccn34)cs2)cc1 [Compound 15, hydrochloride]
0.001

---

- protocol-text: in vitro
- condition-info: mouse, microsomes, 1 h, 1 μM, pH 7.4
Structures can show the parent of a compound that is named as a salt.
test-readout: Percentage turnover in MLM (percent remaining), 60 min (%)
# number only, unit % dropped from output

Field request: Percentage turnover in MLM (percent remaining), 60 min | item: [2H]C([2H])([2H])Oc1ccc(Nc2nc(-c3c(C)nc4ccccn34)cs2)cc1 [Compound 15, hydrochloride]
48

Field request: Percentage turnover in MLM (percent remaining), 60 min | item: Cc1nc2ccccn2c1-c1csc(Nc2ccc3c(c2)OC(F)(F)O3)n1 [Compound 16, hydrochloride]
6

Field request: Percentage turnover in MLM (percent remaining), 60 min | item: COc1c(F)cc(Nc2nc(-c3c(C)nc4ccccn34)cs2)cc1F [Compound 14, hydrochloride]
13

Field request: Percentage turnover in MLM (percent remaining), 60 min | item: [2H]C1([2H])Oc2ccc(Nc3nc(-c4c(C)nc5ccccn45)cs3)cc2O1 [Compound 17, hydrochloride]
3

---

Listed below: concentration at 0.08 h values for each entry.
- protocol-text: Plasma pharmacokinetics and brain distribution after single IV, IP and oral administration
- Type: in vivo
- condition-info: male, C57BL/6, mouse, in vivo, ip, 10 mg/kg, Brain concentration, individual animal
Counter-ions that a name gives are not always drawn.
# number only, unit ng/g dropped from output

Field request: concentration at 0.08 h | item: [2H]C1([2H])Oc2ccc(Nc3nc(-c4c(C)nc5ccccn45)cs3)cc2O1 [Compound 17, hydrochloride]
285

Field request: concentration at 0.08 h | item: [2H]C([2H])([2H])Oc1ccc(Nc2nc(-c3c(C)nc4ccccn34)cs2)cc1 [Compound 15, hydrochloride]
38.4

---

- protocol-text: in vitro
- condition-info: 1 h, 1 μM, pH 7.4
Where a name gives a salt, the structure may show the parent alone.
Listed below: % Remaining at 60 min (Buffer) values for each entry.
# number only, unit % dropped from output

Some compounds with known % Remaining at 60 min (Buffer) results, for comparison:
1. COc1c(F)cc(Nc2nc(-c3c(C)nc4ccccn34)cs2)cc1F [Compound 14, hydrochloride] | 66
2. [2H]C1([2H])Oc2ccc(Nc3nc(-c4c(C)nc5ccccn45)cs3)cc2O1 [Compound 17, hydrochloride] | 101

Field request: % Remaining at 60 min (Buffer) | item: Cc1nc2ccccn2c1-c1csc(Nc2ccc3c(c2)OC(F)(F)O3)n1 [Compound 16, hydrochloride]
87

Field request: % Remaining at 60 min (Buffer) | item: [2H]C([2H])([2H])Oc1ccc(Nc2nc(-c3c(C)nc4ccccn34)cs2)cc1 [Compound 15, hydrochloride]
85

---

- protocol-text: Plasma pharmacokinetics and brain distribution after single IV, IP and oral administration
- Format: in vivo
- condition-info: male, C57BL/6, mouse, in vivo; PO 10 mg/kg, 0.08 hr; read-out: Mean plasma conc.
Structures can show the parent of a compound that is named as a salt.
test-readout: concentration at 0.08 h (ng/mL)
# number only, unit ng/mL dropped from output

Field request: concentration at 0.08 h | item: [2H]C1([2H])Oc2ccc(Nc3nc(-c4c(C)nc5ccccn45)cs3)cc2O1 [Compound 17, hydrochloride]
207

---

Listed below: Percentage turnover in MLM (percent remaining), 15 min values for each entry.
- protocol-text: in vitro
- condition-info: mouse, microsomes, 0.25 h, 1 μM, pH 7.4
Where a name gives a salt, the structure may show the parent alone.
# number only, unit % dropped from output

1. [2H]C1([2H])Oc2ccc(Nc3nc(-c4c(C)nc5ccccn45)cs3)cc2O1 [Compound 17, hydrochloride] | 56
2. COc1c(F)cc(Nc2nc(-c3c(C)nc4ccccn34)cs2)cc1F [Compound 14, hydrochloride] | 62
3. [2H]C([2H])([2H])Oc1ccc(Nc2nc(-c3c(C)nc4ccccn34)cs2)cc1 [Compound 15, hydrochloride] | 98

Field request: Percentage turnover in MLM (percent remaining), 15 min | item: Cc1nc2ccccn2c1-c1csc(Nc2ccc3c(c2)OC(F)(F)O3)n1 [Compound 16, hydrochloride]
58

---

- System: P-gp
- protocol-text: Bi-directional Caco-2 transport assay
- Format: in vitro ADME
- condition-info: human, Caco-2, Efflux Ratio (B-A/A-B)
Structures can show the parent of a compound that is named as a salt.
test-readout: efflux ratio at 90 min, 5 μM

Field request: efflux ratio at 90 min, 5 μM | item: [2H]C1([2H])Oc2ccc(Nc3nc(-c4c(C)nc5ccccn45)cs3)cc2O1 [Compound 17, hydrochloride]
< 2

---

- protocol-text: Plasma pharmacokinetics and brain distribution after single IV, IP and oral administration
- Type: in vivo
- condition-info: male, C57BL/6, mouse, in vivo, ip, 10 mg/kg, Mean plasma conc.
- Protocol: The objective of this study was to investigate the plasma pharmacokinetics and brain distribution of Compound (14 in male C57BL/6 mice following a single intravenous, intraperitoneal and oral administration. A group of sixty-three male mice were divided into three groups (Group 1: 2 mg/kg/IV; Group 2: 10 mg/kg/IP and Group 3: 10 mg/kg/PO) with each group comprising of twenty-one mice. […]
Structures can show the parent of a compound that is named as a salt.
Listed below: concentration at 6 h values for each entry.
# number only, unit ng/mL dropped from output

Some compounds with known concentration at 6 h results, for comparison:
1. Cc1nc2ccccn2c1-c1csc(Nc2ccc3c(c2)OC(F)(F)O3)n1 [Compound 16, hydrochloride] | 0
2. [2H]C([2H])([2H])Oc1ccc(Nc2nc(-c3c(C)nc4ccccn34)cs2)cc1 [Compound 15, hydrochloride] | 16.1

Field request: concentration at 6 h | item: [2H]C1([2H])Oc2ccc(Nc3nc(-c4c(C)nc5ccccn45)cs3)cc2O1 [Compound 17, hydrochloride]
43.7
